- assayRemarks: Rate constant in chemical and enzymatic hydrolysis to form another compound (8)*, in 80% human plasma (experiment 2)
- Assay type: ADME, cell-free
observedProperty: K obs (min⁻¹)
Entry rule: numbers only, all in min⁻¹.

Incoming: Which K obs value is on record for CC(C)(C)C(=O)Oc1ccc(C[C@@H]2NC(=O)COC2=O)cc1O ?
Outgoing: 0.019

----------
- assayRemarks: Partition coefficient is determined in octanol/buffer solution at pH 7.4
- Type: physicochemical
observedProperty: logD

Incoming: Form field: reported logD of CC(C)(C)C(=O)Oc1ccc(C[C@@H]2NC(=O)COC2=O)cc1O
Outgoing: 2.15

----------
- assayRemarks: Rate constant in chemical and enzymatic hydrolysis to form L-DOPA, in 80% human plasma
- Assay type: ADME, cell-free
observedProperty: K obs (min⁻¹)
Report as a plain number; the unit min⁻¹ is understood.

Incoming: Please give the measured K obs for this compound: O=C1COC(=O)[C@H](Cc2ccc(O)c(O)c2)N1
Outgoing: 0.0047
